The measurements presented in this section are drawn from patent US20260216144A1.

molecular target: MYC:TRRAP complexes (Homo sapiens, UniProt P01106+Q9Y4A5); construct: immunoprecipitation experiments using endogenous full length MYC and TRRAP; assay: in vitro co-IP (compounds added directly to the purified MYC:TRRAP complex on pre-washed beads); settings: in vitro by co-IP; normalized to protein levels; FIG. 26B; read-out: IC50 for the inhibition of MYC:TRRAP
Sequence (P01106 16-454): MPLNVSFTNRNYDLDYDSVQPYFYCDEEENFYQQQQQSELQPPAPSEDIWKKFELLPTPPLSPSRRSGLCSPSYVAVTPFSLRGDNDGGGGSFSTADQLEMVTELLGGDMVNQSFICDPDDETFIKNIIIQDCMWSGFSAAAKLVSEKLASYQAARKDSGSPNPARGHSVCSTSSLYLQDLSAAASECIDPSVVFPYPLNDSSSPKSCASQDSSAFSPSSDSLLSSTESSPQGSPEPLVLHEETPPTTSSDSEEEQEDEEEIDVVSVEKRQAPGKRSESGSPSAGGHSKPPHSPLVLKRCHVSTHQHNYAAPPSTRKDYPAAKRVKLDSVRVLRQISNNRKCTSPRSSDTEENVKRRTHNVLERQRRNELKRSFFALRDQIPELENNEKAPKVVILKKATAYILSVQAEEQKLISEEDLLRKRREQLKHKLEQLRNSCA
Sequence (Q9Y4A5 1-3830 isoform Q9Y4A5-2): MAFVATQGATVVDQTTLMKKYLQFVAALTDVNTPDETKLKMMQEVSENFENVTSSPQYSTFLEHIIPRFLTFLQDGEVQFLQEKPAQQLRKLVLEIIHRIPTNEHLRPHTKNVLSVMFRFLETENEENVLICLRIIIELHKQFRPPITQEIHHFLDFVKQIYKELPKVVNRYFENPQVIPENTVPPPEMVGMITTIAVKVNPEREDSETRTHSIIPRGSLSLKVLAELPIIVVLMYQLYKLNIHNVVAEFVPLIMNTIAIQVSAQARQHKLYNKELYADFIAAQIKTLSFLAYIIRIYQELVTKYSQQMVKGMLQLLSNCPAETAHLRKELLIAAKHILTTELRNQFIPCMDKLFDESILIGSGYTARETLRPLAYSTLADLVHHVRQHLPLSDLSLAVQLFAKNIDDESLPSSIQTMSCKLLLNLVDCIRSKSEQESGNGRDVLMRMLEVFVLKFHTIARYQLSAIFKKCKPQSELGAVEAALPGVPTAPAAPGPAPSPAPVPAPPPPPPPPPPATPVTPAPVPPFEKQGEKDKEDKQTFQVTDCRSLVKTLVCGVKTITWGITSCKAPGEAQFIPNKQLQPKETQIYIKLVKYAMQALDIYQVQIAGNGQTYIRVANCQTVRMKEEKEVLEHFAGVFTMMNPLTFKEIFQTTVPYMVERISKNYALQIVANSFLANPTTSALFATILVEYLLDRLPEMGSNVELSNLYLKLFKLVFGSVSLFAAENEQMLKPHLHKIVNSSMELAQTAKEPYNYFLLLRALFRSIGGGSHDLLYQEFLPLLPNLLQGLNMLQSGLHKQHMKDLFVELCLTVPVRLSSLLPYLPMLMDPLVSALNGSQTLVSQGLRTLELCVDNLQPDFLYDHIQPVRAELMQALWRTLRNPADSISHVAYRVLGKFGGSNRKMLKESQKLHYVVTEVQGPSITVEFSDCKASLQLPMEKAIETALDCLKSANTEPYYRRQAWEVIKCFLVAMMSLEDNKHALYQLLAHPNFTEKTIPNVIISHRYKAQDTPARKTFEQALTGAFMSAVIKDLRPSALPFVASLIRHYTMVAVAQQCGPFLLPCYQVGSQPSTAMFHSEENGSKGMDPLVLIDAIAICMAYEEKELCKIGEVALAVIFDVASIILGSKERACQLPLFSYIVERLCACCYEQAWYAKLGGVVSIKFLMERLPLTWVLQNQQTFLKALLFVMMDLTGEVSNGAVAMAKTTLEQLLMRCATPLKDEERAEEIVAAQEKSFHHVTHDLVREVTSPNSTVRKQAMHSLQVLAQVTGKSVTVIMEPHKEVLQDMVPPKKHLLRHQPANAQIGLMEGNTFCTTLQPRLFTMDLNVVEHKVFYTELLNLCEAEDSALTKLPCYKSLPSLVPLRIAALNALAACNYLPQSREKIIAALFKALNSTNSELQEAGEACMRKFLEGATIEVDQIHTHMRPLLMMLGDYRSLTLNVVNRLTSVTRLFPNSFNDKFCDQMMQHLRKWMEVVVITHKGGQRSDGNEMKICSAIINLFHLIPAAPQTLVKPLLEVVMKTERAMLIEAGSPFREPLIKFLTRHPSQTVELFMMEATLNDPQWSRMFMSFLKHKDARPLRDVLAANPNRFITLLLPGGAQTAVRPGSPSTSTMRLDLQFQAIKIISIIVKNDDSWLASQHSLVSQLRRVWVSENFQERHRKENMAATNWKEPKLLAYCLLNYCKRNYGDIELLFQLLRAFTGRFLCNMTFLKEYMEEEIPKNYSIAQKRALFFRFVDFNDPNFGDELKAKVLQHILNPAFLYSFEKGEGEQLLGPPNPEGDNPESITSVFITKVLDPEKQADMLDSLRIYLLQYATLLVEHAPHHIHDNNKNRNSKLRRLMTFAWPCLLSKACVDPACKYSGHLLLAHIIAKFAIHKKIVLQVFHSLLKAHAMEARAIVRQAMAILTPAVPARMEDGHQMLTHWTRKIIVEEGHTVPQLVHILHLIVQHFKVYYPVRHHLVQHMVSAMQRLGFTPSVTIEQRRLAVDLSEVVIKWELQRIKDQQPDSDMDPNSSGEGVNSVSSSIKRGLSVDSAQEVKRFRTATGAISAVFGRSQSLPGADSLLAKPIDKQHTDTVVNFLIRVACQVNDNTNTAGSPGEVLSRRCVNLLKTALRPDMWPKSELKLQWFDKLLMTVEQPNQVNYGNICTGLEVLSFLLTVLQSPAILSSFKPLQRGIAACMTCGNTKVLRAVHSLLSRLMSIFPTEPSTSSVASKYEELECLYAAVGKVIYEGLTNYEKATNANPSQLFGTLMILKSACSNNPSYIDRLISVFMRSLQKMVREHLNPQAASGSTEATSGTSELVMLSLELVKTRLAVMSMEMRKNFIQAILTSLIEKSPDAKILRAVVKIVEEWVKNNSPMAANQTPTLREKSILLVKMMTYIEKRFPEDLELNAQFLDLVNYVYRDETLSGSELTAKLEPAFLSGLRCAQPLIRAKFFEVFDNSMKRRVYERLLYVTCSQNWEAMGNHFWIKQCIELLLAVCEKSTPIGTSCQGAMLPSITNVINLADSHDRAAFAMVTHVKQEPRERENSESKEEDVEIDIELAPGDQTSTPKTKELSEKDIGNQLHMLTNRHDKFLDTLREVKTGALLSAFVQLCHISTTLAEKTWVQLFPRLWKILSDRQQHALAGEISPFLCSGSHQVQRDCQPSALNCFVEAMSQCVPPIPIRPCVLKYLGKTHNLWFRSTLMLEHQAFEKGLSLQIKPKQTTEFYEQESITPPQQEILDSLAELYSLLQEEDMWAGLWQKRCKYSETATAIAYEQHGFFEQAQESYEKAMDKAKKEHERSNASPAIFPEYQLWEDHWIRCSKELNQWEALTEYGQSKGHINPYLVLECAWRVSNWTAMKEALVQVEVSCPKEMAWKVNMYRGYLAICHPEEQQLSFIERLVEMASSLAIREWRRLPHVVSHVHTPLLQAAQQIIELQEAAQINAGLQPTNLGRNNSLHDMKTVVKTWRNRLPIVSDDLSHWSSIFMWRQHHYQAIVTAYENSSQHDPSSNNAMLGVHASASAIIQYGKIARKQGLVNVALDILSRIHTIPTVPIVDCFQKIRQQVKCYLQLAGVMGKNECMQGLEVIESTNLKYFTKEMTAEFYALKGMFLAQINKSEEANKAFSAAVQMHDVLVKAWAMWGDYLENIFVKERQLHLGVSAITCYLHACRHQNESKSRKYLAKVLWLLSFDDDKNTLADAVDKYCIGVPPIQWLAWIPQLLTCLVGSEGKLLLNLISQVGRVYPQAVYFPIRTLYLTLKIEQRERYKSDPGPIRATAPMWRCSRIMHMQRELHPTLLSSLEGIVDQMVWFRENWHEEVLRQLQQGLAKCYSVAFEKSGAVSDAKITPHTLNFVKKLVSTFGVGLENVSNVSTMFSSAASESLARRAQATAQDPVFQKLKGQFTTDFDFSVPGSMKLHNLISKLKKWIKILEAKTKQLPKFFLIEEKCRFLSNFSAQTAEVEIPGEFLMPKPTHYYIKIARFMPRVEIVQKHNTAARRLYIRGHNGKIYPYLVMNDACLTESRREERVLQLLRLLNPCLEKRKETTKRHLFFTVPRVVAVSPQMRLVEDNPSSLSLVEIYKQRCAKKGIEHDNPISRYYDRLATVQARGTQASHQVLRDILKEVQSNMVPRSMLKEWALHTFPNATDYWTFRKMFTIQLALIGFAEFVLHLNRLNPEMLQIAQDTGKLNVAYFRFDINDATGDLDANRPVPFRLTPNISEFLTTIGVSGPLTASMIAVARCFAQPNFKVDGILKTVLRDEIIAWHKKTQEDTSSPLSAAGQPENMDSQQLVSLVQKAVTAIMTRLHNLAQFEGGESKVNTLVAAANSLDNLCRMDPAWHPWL
Observable: IC50 (µM)
Give your result in µM as a bare value.

Query block: Endpoint output: IC50 of `Oc1[nH]c2ccccc2c1/N=N/c1nc(-c2ccccc2)cs1` . Value?
Result block: 3.7

###

target: MYC:TRRAP interaction (Homo sapiens, UniProt P01106+Q9Y4A5); experiment: MYC:TRRAP in-cell luminescence complementation assay (NanoBiT; SmB-MYC 1-190 and TRRAP 2033-2283-LgB in HeLa cells); details: in cells, in-cell luminescence complementation assay; normalized to MYC and TRRAP protein levels; FIG. 26A; read-out: IC50 for the inhibition of MYC:TRRAP
Sequence (P01106 16-205): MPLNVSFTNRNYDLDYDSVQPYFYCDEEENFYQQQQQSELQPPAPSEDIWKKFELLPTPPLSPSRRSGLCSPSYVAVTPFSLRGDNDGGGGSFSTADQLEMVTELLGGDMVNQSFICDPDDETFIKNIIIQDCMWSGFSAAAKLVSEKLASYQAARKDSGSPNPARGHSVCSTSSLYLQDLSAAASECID
Sequence (Q9Y4A5 2051-2301): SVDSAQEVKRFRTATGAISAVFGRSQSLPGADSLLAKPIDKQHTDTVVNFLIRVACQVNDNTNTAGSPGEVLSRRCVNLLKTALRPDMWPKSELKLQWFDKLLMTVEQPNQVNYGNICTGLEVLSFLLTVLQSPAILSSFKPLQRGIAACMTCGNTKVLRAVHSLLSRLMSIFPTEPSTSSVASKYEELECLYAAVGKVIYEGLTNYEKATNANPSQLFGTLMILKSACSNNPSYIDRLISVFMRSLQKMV
Observable: IC50 (µM)
Entry rule: numbers only, all in µM.

Query block: Report IC50 for Oc1[nH]c2ccccc2c1/N=N/c1nc(-c2ccccc2)cs1 [Compound 1024] please.
Result block: 4.7

###

molecular target: MYC:TRRAP interaction (Homo sapiens, UniProt P01106+Q9Y4A5); assay: MYC:TRRAP in-cell luminescence complementation assay (NanoBiT; SmB-MYC 1-190 and TRRAP 2033-2283-LgB in HeLa cells); type: cell-based; conditions: Table 2; compounds with >80% similarity to compound 10 (NSC657456); 10 uM
Classification field. Basis: % Inhibition 10 uM. Definitions: class 0 (below 70%), class 1 (70% to below 90%), class 2 (90% or more)

Query block: Category of `Oc1[nH]c2ccccc2c1/N=N/c1nc(-c2ccc(Br)cc2)cs1` , please.
Result block: class 1

Query block: # repeat for `Oc1[nH]c2ccccc2c1/N=N/c1nc(-c2ccccc2)cs1`
Result block: class 0

Query block: Next compound: `Oc1[nH]c2ccccc2c1/N=N/C(=S)N1CCCC1`
Result block: class 1

Query block: Here is the next compound: `Cc1cccc(/N=C(S)/N=N/c2c(O)[nH]c3ccccc23)c1`
Result block: class 1

Query block: Queued: `c1ccc2c(c1)=NOc1[nH]c3ccccc3c1N=2`
Result block: class 0

Query block: Could you do the same for `O=[N+]([O-])c1cccc(-c2csc(/N=N/c3c(O)[nH]c4ccccc34)n2)c1` , please?
Result block: class 0

Query block: Would you kindly repeat that for `Oc1[nH]c2ccccc2c1/N=N/c1ccccc1` ?
Result block: class 0

Query block: Follow-up item: NC(=O)/N=N/c1c(O)n(O)c2ccccc12 [Compound 106, (1,2-dihydroxyindol-3-yl)iminourea]
Result block: class 2

Query block: // query: `Cc1ccccc1NC(=O)Cc1csc(/N=N/c2c(O)[nH]c3ccccc23)n1`
Result block: class 2

Query block: Same lookup for `N=C(/N=N/c1c(O)[nH]c2ccccc12)N[N+](=O)[O-]` , please.
Result block: class 2

Query block: Also `Oc1[nH]c2ccccc2c1/N=N/c1nc(-c2ccc(Cl)c(Cl)c2)cs1` ?
Result block: class 0

Query block: Try the compound `CCOC(=O)/N=N/c1c(O)[nH]c2ccccc12`
Result block: class 2

Query block: And the next one, `O=C(/N=N/c1c(O)[nH]c2ccccc12)C(F)(F)F` ?
Result block: class 1

Query block: Another compound: N=C(S)/N=N/c1c(O)[nH]c2ccccc12 [Compound 101, (2-hydroxy-1H-indol-3-yl)iminothiourea]
Result block: class 2

Query block: Please answer likewise for `C=CC/N=C(S)/N=N/c1c(O)[nH]c2ccccc12`
Result block: class 1
